Biological target: N. gonorrhoeae PBP2 (Neisseria gonorrhoeae, UniProt P08149)
Construct: made in house
Sequence (P08149 whole entry): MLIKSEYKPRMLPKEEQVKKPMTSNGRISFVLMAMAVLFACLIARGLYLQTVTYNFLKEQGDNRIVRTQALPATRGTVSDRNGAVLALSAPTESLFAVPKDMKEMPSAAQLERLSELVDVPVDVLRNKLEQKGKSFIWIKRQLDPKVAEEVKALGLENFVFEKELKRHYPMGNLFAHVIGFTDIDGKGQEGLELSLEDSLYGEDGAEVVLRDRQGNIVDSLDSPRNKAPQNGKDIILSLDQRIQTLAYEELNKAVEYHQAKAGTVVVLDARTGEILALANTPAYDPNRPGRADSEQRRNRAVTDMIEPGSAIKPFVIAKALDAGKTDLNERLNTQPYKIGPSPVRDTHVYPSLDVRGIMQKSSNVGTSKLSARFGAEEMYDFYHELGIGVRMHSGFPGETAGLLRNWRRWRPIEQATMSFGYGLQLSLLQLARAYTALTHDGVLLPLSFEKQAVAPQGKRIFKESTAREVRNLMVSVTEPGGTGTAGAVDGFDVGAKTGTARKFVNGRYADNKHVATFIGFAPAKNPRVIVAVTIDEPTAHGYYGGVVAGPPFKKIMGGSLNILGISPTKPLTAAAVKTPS
Test: Bocillin-FL fluorescence polarization competition binding assay, N. gonorrhoeae PBP2
Conditions: N. gonorrhoeae PBP2; assay validation with beta-lactams; read-out: EC50 (concentration of beta-lactam required to reduce the amount of PBP bound-Bocillin-FL by 50%)
property: pEC50
By convention, pEC50 is the negative base-10 log of a molar concentration.

**Query** pEC50 of C=CC1=C(C(=O)O)N2C(=O)[C@@H](NC(=O)/C(=N\OCC(=O)O)c3csc(N)n3)[C@H]2SC1 [cefixime, reference compound] on N. gonorrhoeae PBP2 (Neisseria gonorrhoeae, UniProt P08149)?
**Result** 6.59

---

Target: E. coli K12 PBP3 (Escherichia coli)
Sequence (P0AD68 1-577): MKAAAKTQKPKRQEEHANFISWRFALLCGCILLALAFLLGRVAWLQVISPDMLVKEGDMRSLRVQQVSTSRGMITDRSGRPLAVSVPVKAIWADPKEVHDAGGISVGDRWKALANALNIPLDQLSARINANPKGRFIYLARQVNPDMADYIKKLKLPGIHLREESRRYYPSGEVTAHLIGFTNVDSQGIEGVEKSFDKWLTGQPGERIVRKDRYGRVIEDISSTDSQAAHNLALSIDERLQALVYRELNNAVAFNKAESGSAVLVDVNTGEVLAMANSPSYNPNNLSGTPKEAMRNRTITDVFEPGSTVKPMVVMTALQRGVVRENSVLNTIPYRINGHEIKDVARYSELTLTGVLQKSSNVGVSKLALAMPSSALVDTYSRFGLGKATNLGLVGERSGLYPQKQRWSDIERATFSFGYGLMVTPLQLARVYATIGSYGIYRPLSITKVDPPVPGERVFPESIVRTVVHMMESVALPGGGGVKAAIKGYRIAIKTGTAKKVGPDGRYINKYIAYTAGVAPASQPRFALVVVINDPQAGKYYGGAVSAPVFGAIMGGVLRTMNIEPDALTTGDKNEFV
Assay: biochemical
pEC50: −log10 of the molar value.
Let's look at some compounds and their measured pEC50.

In the examples that follow, each entry is paired with its recorded pEC50.
>>> df
                                   compound                        tested_system  reported_value
0  CCN1CCN(C(=O)NC(C(=O)N[C@H]2Cc3cccc(C(=O)O)c3OB2O)c2cccc(N)c2)C(=O)C1=O (stereo partly shown)  E. coli K12 PBP3 (Escherichia coli)          > 4.52
1  N=C(N)NCCN1CCN(C(=O)NC(C(=O)N[C@H]2Cc3ccc(F)c(C(=O)O)c3OB2O)c2ncc(O)cc2F)C(=O)C1=O (stereo partly shown)  E. coli K12 PBP3 (Escherichia coli)    3.30 to 4.52
2  N=C(N)NC(C(=O)N[C@H]1Cc2ccc(F)c(C(=O)O)c2OB1O)c1ncc(O)cc1F (stereo partly shown)  E. coli K12 PBP3 (Escherichia coli)          < 3.30
3  NCCCN1CCN(C(=O)NC(C(=O)N[C@H]2Cc3cccc(C(=O)O)c3OB2O)c2c(F)cc(O)cc2F)C(=O)C1=O (stereo partly shown)  E. coli K12 PBP3 (Escherichia coli)          > 4.52

**Query** Recorded pEC50 for NCCN1CCN(C(=O)N[C@@H](C(=O)N[C@H]2Cc3cccc(C(=O)O)c3OB2O)c2cc(F)c(O)c(F)c2)C(=O)C1=O (single isomer, unassigned) , please?
**Result** > 4.52

**Query** What value of measured pEC50 is listed for NCCN1CCN(C(=O)NC(C(=O)N[C@H]2Cc3cccc(C(=O)O)c3OB2O)c2cc(F)c(O)cc2F)C(=O)C1=O (stereo partly shown) ?
**Result** > 4.52

**Query** Quick one: pEC50 for NCCCN1CCN(C(=O)NC(C(=O)N[C@H]2Cc3cccc(C(=O)O)c3OB2O)c2ccc(C(=O)O)cc2)C(=O)C1=O (stereo partly shown) ?
**Result** > 4.52

---

Tested on: E. coli 901C
Experiment: Broth microdilution MIC in CAMHB
Format: cell-based
Conditions: Escherichia coli; E. coli 901C (hyper-permeable); MHB; read-out: Minimum Inhibitory Concentration, E. coli 901C
Overview of reported MIC across a group of compounds:

Check out these entries, answers already filled in.
>>> df
                                   compound  tested_system  reported_value
0  CCN1CCN(C(=O)NC(C(=O)N[C@H]2Cc3cccc(C(=O)O)c3OB2O)c2ccc(O)c(Cl)c2F)C(=O)C1=O (stereo partly drawn)   E. coli 901C    < 0.25 µg/mL
1  CCN1CCN(C(=O)NC(C(=O)N[C@H]2Cc3cccc(C(=O)O)c3OB2O)c2ccc(O)c(N)c2)C(=O)C1=O (stereo partly drawn)   E. coli 901C  0.5 to 1 µg/mL
2  NCCN1CCN(C(=O)N[C@H](C(=O)N[C@H]2Cc3ccc(F)c(C(=O)O)c3OB2O)c2c(F)cc(O)cc2F)C(=O)C1=O (single isomer, unassigned)   E. coli 901C   8 to 16 µg/mL
3  CCN1CCN(C(=O)NC(C(=O)N[C@H]2Cc3cccc(C(=O)O)c3OB2O)c2cc(NS(N)(=O)=O)ccc2F)C(=O)C1=O (stereo partly drawn)   E. coli 901C    < 0.25 µg/mL
4  NCCN1CCN(C(=O)NC(C(=O)N[C@H]2Cc3cccc(C(=O)O)c3OB2O)c2c(F)cc(O)cc2Cl)C(=O)C1=O (stereo partly drawn)   E. coli 901C  0.5 to 1 µg/mL

Proceeding to the next compound to report its MIC.
**Query** Write down the reported MIC of CCN1CCN(C(=O)NC(C(=O)N[C@H]2Cc3cccc(C(=O)O)c3OB2O)c2cc(Cl)c(O)cc2F)C(=O)C1=O (stereo partly drawn) , test system: E. coli 901C.
**Result** < 0.25 µg/mL

---

Parameter MIC, tested on A. baumannii CDC-0036 OXA-65, and OXA-24, listed per item.

compound	tested.system	MIC
CCN1CCN(C(=O)N[C@@H](C(=O)N[C@H]2Cc3ccc(F)c(C(=O)O)c3OB2O)c2c(Cl)cc(O)c(O)c2F)C(=O)C1=O (single isomer, unassigned) [Example 207]	A. baumannii CDC-0036 OXA-65, and OXA-24	2 to 4 µg/mL
CCN1CCN(C(=O)NC(C(=O)N[C@H]2Cc3ccc(F)c(C(=O)O)c3OB2O)c2c(F)cc(O)c(O)c2F)C(=O)C1=O (stereo partly drawn) [Example 36]	A. baumannii CDC-0036 OXA-65, and OXA-24	0.5 to 1 µg/mL

// below: MIC requested for another compound
**Query** Missing value: MIC, A. baumannii CDC-0036 OXA-65, and OXA-24, entry O=C(O)c1ccc(C(NC(=O)c2c(F)cc(O)c(O)c2Cl)C(=O)N[C@H]2Cc3ccc(F)c(C(=O)O)c3OB2O)cc1F (stereo partly drawn) [Example 71] . Fill in?
**Result** 32 to 64 µg/mL

---

System: A. baumannii ATCC 19606
Assay: Broth microdilution MIC in CAMHB
Type: cell-based
Conditions: Acinetobacter baumannii, ATCC19606; MHB; read-out: Minimum Inhibitory Concentration, A. baumannii ATCC 19606
property: MIC

Consider the worked cases shown below.
In [3]: df
Out[3]:
                                   compound  property  reported_value
0  CS(=O)(=O)N1CCN(C(=O)N[C@H](C(=O)N[C@H]2Cc3cccc(C(=O)O)c3OB2O)c2c(F)cc(O)cc2F)C1=O (single isomer, unassigned)       MIC     > 128 µg/mL
1  CCN1CCN(C(=O)NC(C(=O)N[C@H]2Cc3ccc(C(F)(F)F)c(C(=O)O)c3OB2O)c2csc(N)n2)C(=O)C1=O (stereo partly shown)       MIC     > 128 µg/mL
2  CCN1CCN(C(=O)N[C@H](C(=O)N[C@H]2Cc3cccc(C(=O)O)c3OB2O)c2ccc(C(=O)O)cc2)C(=O)C1=O (single isomer, unassigned)       MIC     > 128 µg/mL
3  CCN1CCN(C(=O)NC(C(=O)N[C@H]2Cc3cccc(C(=O)O)c3OB2O)c2ccc(O)c(NC(C)=O)c2)C(=O)C1=O (stereo partly shown)       MIC     > 128 µg/mL
4  CCN1CCN(C(=O)N[C@H](C(=O)N[C@H]2Cc3cccc(C(=O)O)c3OB2O)c2ccc(C(=O)O)c(F)c2F)C(=O)C1=O (single isomer, unassigned)       MIC     > 128 µg/mL

Next up:
**Query** Item: O=C(O)c1c(F)ccc2c1OB(O)[C@@H](NC(=O)C(NC(=O)N1CCN(CCF)C(=O)C1=O)c1c(F)cc(O)cc1F)C2 (stereo partly shown) Test system: A. baumannii ATCC 19606 Read-out: MIC Value: ?
**Result** > 128 µg/mL

---

Tested on: A. baumannii ATCC 19606
Assay: Broth microdilution MIC in iron-depleted CAMHB (IDM)
Type: cell-based
Settings: Acinetobacter baumannii, ATCC19606, read-out: Minimum Inhibitory Concentration, ATCC 19606
property: MIC

Please review the entries below; each comes with its answer.
molecule	property	reported.value
CS(=O)(=O)N1CCN(C(=O)N[C@@H](C(=O)N[C@H]2Cc3ccc(F)c(C(=O)O)c3OB2O)c2c(F)c(F)c(O)c(O)c2Cl)C1=O	MIC	0.5 to 1 µg/mL
O=C(NC(C(=O)N[C@H]1Cc2ccc(F)c(C(=O)O)c2OB1O)c1ncc(O)cc1F)c1ccc(O)c(O)c1Cl (some centres unmarked)	MIC	32 to 64 µg/mL
C[C@H]1CN(CCNC(=O)c2ccc(O)c(O)c2Cl)C(=O)C(=O)N1C(=O)NC(C(=O)N[C@H]1Cc2cccc(C(=O)O)c2OB1O)c1ncc(O)cc1F (some centres unmarked)	MIC	0.5 to 1 µg/mL
CCN1CCN(C(=O)N[C@@H](C(=O)N[C@H]2Cc3ccc(F)c(C(=O)O)c3OB2O)c2c(F)c(F)c(O)c(O)c2Cl)C(=O)C1=O	MIC	0.25 µg/mL
NS(=O)(=O)Nc1cccc(C(NC(=O)N2CCN(Cc3c(F)cc(O)c(O)c3Cl)C(=O)C2=O)C(=O)N[C@H]2Cc3cccc(C(=O)O)c3OB2O)c1 (some centres unmarked)	MIC	> 128 µg/mL

**Query** Sample NC1(CN2CCN(C(=O)N[C@@H](C(=O)N[C@H]3Cc4ccc(F)c(C(=O)O)c4OB3O)c3cc(F)c(O)c(O)c3Cl)C(=O)C2=O)CC1 (single isomer, unassigned) — what was its MIC?
**Result** 0.25 µg/mL

**Query** Report MIC for NCCN1CCN(C(=O)N[C@@H](C(=O)N[C@H]2Cc3ccc(F)c(C(=O)O)c3OB2O)c2c(F)cc(O)c(O)c2Cl)C(=O)C1=O (single isomer, unassigned) please.
**Result** 0.5 to 1 µg/mL

**Query** Value lookup for MIC; key = CCN1CCN(C(=O)N[C@H](C(=O)N[C@H]2Cc3ccc(F)c(C(=O)O)c3OB2O)c2c(F)cc(O)c(O)c2Cl)C(=O)C1=O (single isomer, unassigned)
**Result** > 128 µg/mL

**Query** For the molecule O=C(O)c1ccc(C(NC(=O)c2c(F)cc(O)c(O)c2Cl)C(=O)N[C@H]2Cc3ccc(F)c(C(=O)O)c3OB2O)cc1F (some centres unmarked) , what MIC is on record?
**Result** 32 to 64 µg/mL

**Query** What does the data say about its MIC? Entry: NCCN1CCN(C(=O)N[C@@H](C(=O)N[C@H]2Cc3ccc(F)c(C(=O)O)c3OB2O)c2c(F)cc(O)c(O)c2F)C(=O)C1=O (single isomer, unassigned)
**Result** 0.5 to 1 µg/mL

**Query** # query: MIC of entry O=C(O)c1c(F)ccc2c1OB(O)[C@@H](NC(=O)C(NC(=O)N1CCN(CCF)C(=O)C1=O)c1c(F)cc(O)c(O)c1F)C2 (some centres unmarked)
**Result** 0.25 µg/mL
